- targetEntity: T1, Recombinant CSP (Wellcome Trust Sanger Institute, FIG. 22), CSP ectodomain with BirA biotinylation tag, … (Plasmodium falciparum strain 3D7, UniProt Q7K740 19-376, biotinylated at the BirA substrate peptide)
- T1 construct: extracellular domain; Expressed in HEK293, 45 kDa; order of the tags is that of the legend, not confirmed; also called biotinylated recombinant CSP
- assay: SPR (ProteOn), biotinylated CSP on NLC chip, Fab as analyte, 25 C, 1:1 fit
measurementLabel: kon (M⁻¹ s⁻¹)
Hi! Could you send only the number? It should be in M⁻¹ s⁻¹, unit omitted.

Query: Give me measured kon, please, for this binder: Antibody 669 Fab (Fab, V domains shown, recombinant human Fab from CHO-3E7 cells, purified on nickel columns) VH: QVQLVQSGAEVKKPGASVRVSCKASGFTFTSYAMHWVRQAPGQRLEWMGWINAGNGHTKYSQKFQDRVAITRDTSATTVYMDLSSLRSEDTAVYYCTRDGFCTSTTCSDHYGMDVWGQGTTVTVSS VL: QSALTQPASVSGSPGQSITISCTGTSSDVGSYNYVSWYQQHPGKAPKFMIYDVSKRPSGVSNRFSGSKSGNTASLTISGLQAEDEADYYCCSYAGSSTWVFGGGTKLTVL
Response: 16800

// data source = patent US20180362628A1
